Target: human GnRH receptor (Homo sapiens)
Sequence (P30968 1-328): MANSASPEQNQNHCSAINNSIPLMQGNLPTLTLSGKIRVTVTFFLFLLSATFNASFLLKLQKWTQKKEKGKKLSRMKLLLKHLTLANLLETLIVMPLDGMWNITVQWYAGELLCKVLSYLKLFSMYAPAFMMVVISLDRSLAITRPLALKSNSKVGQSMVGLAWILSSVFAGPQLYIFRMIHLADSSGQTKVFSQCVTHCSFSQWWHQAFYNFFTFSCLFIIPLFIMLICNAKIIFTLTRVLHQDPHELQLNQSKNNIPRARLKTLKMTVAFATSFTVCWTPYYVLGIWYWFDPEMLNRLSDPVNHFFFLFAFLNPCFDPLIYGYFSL
Assay: IP-One HTRF assay with buserelin (at EC80) stimulation
Conditions: CHO cells stably expressing human GnRH receptor, read-out: Potency in IP-One HTRF assay, given as IC50
value-type: pIC50
// returns pIC50 (minus log10 of molar concentration), number only

>>> endpoint_value("O=C(NCc1ccc(F)cc1Cl)c1ccc2c(c1)C1(CCS(=O)(=O)CC1)C(C1CC1)N2S(=O)(=O)c1ccc(F)cc1 (single isomer, unassigned) [Example 16.1]")
7.21
>>> endpoint_value("O=C(NCc1ccccc1Cl)c1ccc2c(c1)C1(CCS(=O)(=O)CC1)C(C1CC1)N2S(=O)(=O)c1ccc(F)cc1 (stereo not drawn) [Example 18]")
7.33
>>> endpoint_value("O=C(NCc1ccccc1Cl)c1ccc2c(c1)C1(CC[S+]([O-])CC1)C(C1CC1)N2S(=O)(=O)c1ccc(F)cc1 (single isomer, unassigned) [Example 13.2]")
6.42

Exercise: Entry N#Cc1cccc(S(=O)(=O)N2c3ccc(C(=O)NCc4ncccc4C(F)(F)F)cc3C3(CCS(=O)(=O)CC3)C2C2CC2)c1 (stereo not drawn) [Example 79] : reported pIC50 = ?
Solution: 7.19

Exercise: Look at this compound and give its reported pIC50. NS(=O)(=O)c1cccc(NC(=O)c2ccc3c(c2)C2(CCS(=O)(=O)CC2)C(C2CC2)N3S(=O)(=O)c2ccc(F)cc2)c1 (single isomer, unassigned) [Example 30.2]
Solution: 6.72

These entries and their values trace back to patent US20140357655A1.
